Target: DBH (Homo sapiens, UniProt P09172)
Sequence (P09172 whole entry, species assumed): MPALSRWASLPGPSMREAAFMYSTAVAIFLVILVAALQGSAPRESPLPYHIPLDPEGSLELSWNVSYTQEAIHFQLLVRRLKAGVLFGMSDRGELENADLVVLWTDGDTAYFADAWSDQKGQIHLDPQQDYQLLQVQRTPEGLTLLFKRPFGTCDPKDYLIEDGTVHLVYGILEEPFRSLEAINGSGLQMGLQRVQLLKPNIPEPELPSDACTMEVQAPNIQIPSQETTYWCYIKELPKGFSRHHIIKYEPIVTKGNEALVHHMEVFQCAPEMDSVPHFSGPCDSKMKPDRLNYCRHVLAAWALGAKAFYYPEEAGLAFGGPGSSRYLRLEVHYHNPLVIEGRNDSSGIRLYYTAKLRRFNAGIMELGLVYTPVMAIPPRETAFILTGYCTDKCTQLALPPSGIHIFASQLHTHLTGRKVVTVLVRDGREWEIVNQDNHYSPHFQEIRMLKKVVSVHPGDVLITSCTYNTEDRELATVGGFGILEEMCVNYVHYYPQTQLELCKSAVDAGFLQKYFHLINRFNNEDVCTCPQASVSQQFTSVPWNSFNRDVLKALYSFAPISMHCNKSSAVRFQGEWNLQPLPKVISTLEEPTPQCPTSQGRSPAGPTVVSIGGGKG
Test: in vitro DBH inhibition, conversion of tyramine to octopamine in the presence of DBH
Conditions: concentration of compound at which DBH activity was halved; read-out: DBH IC₅₀
assay.endpoint: IC50 (nM)
Unit nM implied. Number only.

Measured IC50, Cl.Fc1cc(F)cc(Cn2cccnc2=S)c1 [Hydrochloride] : 2800
